Assay: Drug metabolism in human liver microsomes
Assay type: ADME, Microsome
Conditions: read-out: Drug metabolism
Could you please report measured metabolised for the items listed next?
Unit % implied. Number only.

The value of metabolised measured for the molecule OCc1cccc(-c2ccc3nc(-c4ccc(Cl)cc4)cn3c2)c1 turned out to be 22

O=C(Nc1ccccc1)c1cn2cc(-c3ccccn3)ccc2n1 yielded metabolised of 20

###

Experiment: AUC in C57BL/6 mouse brain at 3 mg/kg, iv administered as single dose
Assay type: ADME, organism-based
ATTRIBUTE_MEASURED: AUC (ng·h/mL)
Respond with the bare value in ng·h/mL.

Reported AUC ( CC(C)(O)c1cccc(-c2ccc3nc(-c4ccc(Cl)cc4)cn3c2)c1 ) = 15000
